Assay: NCI Yeast Anticancer Drug Screen. Data for the cln2 rad14 strain (AID 165);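 also: 0% = growth equal to vehicle treated cultures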
Details: S. cerevisiae cln2 rad14 strain, at 50.0 µM, active compounds read high
The panel holds about 79,000 compounds, 15% with a hit somewhere; the sample as a whole holds those more often.
Can you tell me growth inhibition for the items I'm about to list?
# output: bare number, implied unit %

Inquiry: Note down growth inhibition recorded for CC1(C=O)CCCC2(C)[C@@H]1CCC13CC(CO)C(CC[C@H]12)C3 (some centres not stated)
Reply text: 16.6

Inquiry: Note down growth inhibition recorded for OC1CCCCC2CC2C1O (configuration not stated)
Reply text: -44.7

Inquiry: Note down growth inhibition recorded for [N-]=[N+]=Nc1ccccc1-c1ccccc1[N+](=O)[O-]
Reply text: 0.4

Inquiry: Note down growth inhibition recorded for N/C=N/OCc1ccccc1
Reply text: 4.7

Inquiry: Note down growth inhibition recorded for COc1ccc(C(CC(=O)c2ccccc2)C(=O)c2ccc3c(c2)OCO3)cc1 (configuration not stated)
Reply text: -12.7

Inquiry: Note down growth inhibition recorded for CN(C)CCNc1ncnc2nc(-c3ccc4ccccc4c3)[nH]c12
Reply text: 11.6

Inquiry: Note down growth inhibition recorded for CC(=O)Nc1ccc([N+](=O)[O-])cc1Cl
Reply text: -3.15

Inquiry: Note down growth inhibition recorded for O=C(NCCc1c[nH]c2ccccc12)C1CCCCC1
Reply text: -25.6

Inquiry: Note down growth inhibition recorded for CC(=O)Nc1ccc2oc(C)nc2c1
Reply text: 8.7

Inquiry: Note down growth inhibition recorded for c1ccc2[nH]cnc2c1
Reply text: -4.4

Inquiry: Note down growth inhibition recorded for O=[N+]([O-])c1ccc(OCC#CCOc2ccc([N+](=O)[O-])c(C(F)(F)F)c2)cc1C(F)(F)F
Reply text: 4.65

Inquiry: Note down growth inhibition recorded for O=C(O)Cc1ccccc1-c1ccccc1
Reply text: 22.4

====

Assay: NCI Yeast Anticancer Drug Screen. Data for the rad50 strain (AID 155);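 also: 0% = growth of vehicle-only cultures of the same strain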
Settings: S. cerevisiae rad50 strain growth inhibition; at 50.0 µM; active compounds read high
The panel holds about 79,000 compounds, 15% with a hit somewhere; the sample as a whole holds those more often.
Reported metric: growth inhibition (%)
# output: bare number, implied unit %

Inquiry: Note down growth inhibition recorded for Fc1ccc2nncc(/C=C/c3ccccc3F)c2c1
Reply text: 11.3

Inquiry: Note down growth inhibition recorded for O=C(COc1ccccc1Cl)N1N=C(c2ccccc2)CC1(O)c1ccccc1 (stereo unspecified)
Reply text: -4.25

Inquiry: Note down growth inhibition recorded for N#Cc1nc(Nc2cccc3ccccc23)sc1N
Reply text: 8.2

Inquiry: Note down growth inhibition recorded for O=C1c2ccccc2C(=O)C2C1C1C(=O)c3ccccc3C(=O)C21 (stereo unspecified)
Reply text: -14.6

Inquiry: Note down growth inhibition recorded for Nc1ccc(C(=O)Nc2ccc3c(ccc4ccccc43)c2)cc1
Reply text: -5.8

Inquiry: Note down growth inhibition recorded for Cn1ccc2c(C(=O)c3ccccc3)cccc2c1=O
Reply text: 7.75

Inquiry: Note down growth inhibition recorded for C=C(C)C(O)C(O)C(=C)C (stereo unspecified)
Reply text: -6.35

Inquiry: Note down growth inhibition recorded for Nc1nc2ncn(COC(CO)CO)c2c(=O)[nH]1
Reply text: 7

Inquiry: Note down growth inhibition recorded for CSc1nc(=S)c2[nH]c(=S)[nH]c2[nH]1
Reply text: -1.2

Inquiry: Note down growth inhibition recorded for CCOC(=O)C1=CC(=O)CC(C)(C)O1
Reply text: -2.6

Inquiry: Note down growth inhibition recorded for O=C(O)c1cc(Nc2nc(Cl)nc(Cl)n2)ccc1-c1c2ccc(=O)cc-2oc2cc(O)ccc12
Reply text: 37.2

Inquiry: Note down growth inhibition recorded for COc1ccc(N=C2SC(=N/N=c3\sc4ccccc4n3C)SC2=Nc2ccc(OC)cc2)cc1
Reply text: 4.15

Inquiry: Note down growth inhibition recorded for CC1(C)C(=O)CCC2(C)C(OC(=O)c3ccc(C(=O)O)cc3)CCCC12 (stereo unspecified)
Reply text: -2

Inquiry: Note down growth inhibition recorded for O=NNc1ccc(Oc2ccccc2)cn1
Reply text: 15.4

Inquiry: Note down growth inhibition recorded for O=C(O)CCC(=O)Oc1ccc(O)c2c1CCCC2=O
Reply text: -6.95

Inquiry: Note down growth inhibition recorded for N#CC(C#N)=CC(C#N)C#N
Reply text: -10

Inquiry: Note down growth inhibition recorded for CCCC(=O)N(C)c1ccccc1
Reply text: 7.5

Inquiry: Note down growth inhibition recorded for N#CC(C#N)=CN1CCNC1=S
Reply text: 14.3

Inquiry: Note down growth inhibition recorded for C[Si](C)(C)c1ccc(-c2ccccc2)cc1
Reply text: 20.1

Inquiry: Note down growth inhibition recorded for Cc1cccc2c1Oc1ccccc1C2NC(=O)OCCc1ccccc1 (stereo unspecified)
Reply text: -14.3

Inquiry: Note down growth inhibition recorded for CC(C)OCCOCCO
Reply text: 7.65

Inquiry: Note down growth inhibition recorded for CCOC(=O)CC1CC(C)(C(=O)OCC)C(=O)CC1=O (stereo unspecified)
Reply text: -21.1

Inquiry: Note down growth inhibition recorded for COc1ccc2c(c1)SC1=NNC(=O)CN12
Reply text: -21.6

Inquiry: Note down growth inhibition recorded for CC(=O)Oc1c(Cl)c(Cl)c(C#N)c(Cl)c1C#N
Reply text: 30.4

Inquiry: Note down growth inhibition recorded for [N-]=[N+]=NCC1OCC(O)C(OCc2ccccc2)C1OCc1ccccc1 (stereo unspecified)
Reply text: -8.6

Inquiry: Note down growth inhibition recorded for Cc1cn(C2CC3[O][Sn]([c]4ccccc4)([c]4ccccc4)[O]CC3O2)c(=O)[nH]c1=O (stereo unspecified)
Reply text: 8.65

====

Assay: NCI Yeast Anticancer Drug Screen. Data for the bub3 strain (AID 167)
Conditions: S. cerevisiae bub3 mutant strain, at 50.0 µM, active compounds read high
Experimental: Growth inhibition of yeast strains with defined genetic alterations is measured as a screen for potential anti-cancer activity. Selected strains with alterations in DNA damage repair or cell cycle control were exposed to compounds and growth inhibition was measured relative to vehicle treated controls. The strain used in this assay is bub3
The panel holds about 79,000 compounds, 15% with a hit somewhere; the sample as a whole holds those more often.
Can you tell me growth inhibition for the items I'm about to list?
# output: bare number, implied unit %

Inquiry: Note down growth inhibition recorded for Cc1ccc(S(=O)(=O)N2CN3CN(C2)CN(S(=O)(=O)c2ccc(C)cc2)C3)cc1
Reply text: 6.4

Inquiry: Note down growth inhibition recorded for CCOC(=O)C(Nc1cc([N+](=O)[O-])ccc1C(=O)N1CCCCC1)(C(=O)OCC)N1CCCCC1
Reply text: 0.2

Inquiry: Note down growth inhibition recorded for CCOC(=O)C1=C(C(=O)c2ccc(OC)cc2)C(c2cccc([N+](=O)[O-])c2)C(C(=O)c2ccc(OC)cc2)=C(C(=O)OCC)N1
Reply text: -6.45

Inquiry: Note down growth inhibition recorded for Oc1cccc2c(O)cccc12
Reply text: 25.5

Inquiry: Note down growth inhibition recorded for CCCCCCCCN1COC2CCc3ccccc3C21 (stereo unspecified)
Reply text: 94

Inquiry: Note down growth inhibition recorded for Cc1ccc(NC(=O)OCC2CC3C=CC2C3)cc1 (stereo unspecified)
Reply text: 95.2

Inquiry: Note down growth inhibition recorded for COC(=O)c1nc(=S)[nH]c(C(=O)OC)c1C(=O)c1ccc(OC)cc1
Reply text: -30.4

Inquiry: Note down growth inhibition recorded for COc1ccc(/C=C/c2cc(O)cc(OC3OC(CO)C(O)C(O)C3O)c2)cc1O (stereo unspecified)
Reply text: 8.7

Inquiry: Note down growth inhibition recorded for Cc1cc(-c2ccccc2)nc(Nc2cc3ccccc3[nH]2)n1
Reply text: -4.25

Inquiry: Note down growth inhibition recorded for CCCCCC(C(C)=O)C(C)=O
Reply text: -15.8

Inquiry: Note down growth inhibition recorded for C=C[Si](Cl)(Cl)c1ccccc1
Reply text: 6.5

====

Test: NCI Yeast Anticancer Drug Screen. Data for the cln2 rad14 strain (AID 165);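 also: 0% = growth equal to vehicle treated cultures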
Conditions: S. cerevisiae cln2 rad14 strain, at 50.0 µM
About 79,000 compounds went through this panel and 15% of them were active in at least one assay; those are over-represented in the sample as a whole. Calls of active or inactive are those of the source. Cut-off read from the data, not from the text of the source: active = growth inhibition above about 70%; inactive = the rest.
Could you please pick one outcome from this set? yes for active, no for inactive

Inquiry: Just curious, what result did CC(C)=CC1C(C(=O)O)C1(C)C (centres undefined) get here?
Reply text: no

Inquiry: Just curious, what result did CCCC(=O)C(N)CC(C)C (centres undefined) get here?
Reply text: no

Inquiry: Just curious, what result did COc1cc2c(c(OC)c1OC)-c1ccc(SC)c(=O)cc1C(N=C(NC1OCC(OC(C)=O)C(OC(C)=O)C1OC(C)=O)SN(NC(=O)OCc1ccccc1)C(=O)OCc1ccccc1)CC2 (centres undefined) get here?
Reply text: no

Inquiry: Just curious, what result did COC(=O)c1nc(NN)[nH]c(=O)c1CCCCCc1c(C(=O)OC)[nH]c(NN)cc1=O get here?
Reply text: no

Inquiry: Just curious, what result did COc1ccc(-n2[nH]c3c(cnc4ccccc43)c2=O)cc1 get here?
Reply text: no

Inquiry: Just curious, what result did CCOC(=O)c1c(C)[nH]c(C2=NCCC2)c1C get here?
Reply text: no

Inquiry: Just curious, what result did Cn1c(N)c(N=O)c(=O)n(C)c1=O get here?
Reply text: no

Inquiry: Just curious, what result did CCn1c2ccc(N(C)C)cc2c2cc(N(C)C)ccc21 get here?
Reply text: no

Inquiry: Just curious, what result did CCC(c1ccc(OC)cc1)c1cc2c(cc1OCCO)OCO2 (centres undefined) get here?
Reply text: no

Inquiry: Just curious, what result did CC1(C)OC2COC(c3[nH]nc(C(N)=O)c3C(=O)N=[N+]=[N-])C2O1 (centres undefined) get here?
Reply text: no

Inquiry: Just curious, what result did CCCc1ccc(N)cc1 get here?
Reply text: no

Inquiry: Just curious, what result did CCCCCCCCCCCCCCCCC(=O)O get here?
Reply text: no

Inquiry: Just curious, what result did O=C(C(=NC12CC3CC(CC(C3)C1)C2)NNc1ccc([N+](=O)[O-])cc1[N+](=O)[O-])C(Br)C(=O)c1ccccc1 (centres undefined) get here?
Reply text: no

Inquiry: Just curious, what result did CCCCOCCOC(=O)c1ccccc1C(=O)OCCOCCCC get here?
Reply text: no

Inquiry: Just curious, what result did Cc1cc(C)c(C(=O)O)c(C)c1Br get here?
Reply text: no

Inquiry: Just curious, what result did CC1(C)OC2(CC1C1(C)C=CC(=O)O1)CC1(O)C(CCC34CC13C(=O)OC4c1ccoc1)O2 (centres undefined) get here?
Reply text: no

Inquiry: Just curious, what result did COC1(c2ccc(C)cc2)c2cccc3cccc(c23)C1(O)c1ccc(C)cc1 (centres undefined) get here?
Reply text: no

Inquiry: Just curious, what result did CCOc1ccc(C(=O)OC(C)C)cc1 get here?
Reply text: no

Inquiry: Just curious, what result did O=C1CC(c2ccccc2)=NN1c1ccccc1 get here?
Reply text: no

Inquiry: Just curious, what result did O=P(Nc1cccc(Cl)c1)(Nc1cccc(Cl)c1)c1ccccc1 get here?
Reply text: yes

Inquiry: Just curious, what result did Cc1ccc(SCCN)cc1 get here?
Reply text: no

Inquiry: Just curious, what result did COc1ccc(CCNC(=S)NN)cc1OC get here?
Reply text: no

Inquiry: Just curious, what result did N#C/C(=C/c1ccc(Cl)cc1)C(=O)O get here?
Reply text: no

Inquiry: Just curious, what result did O=C(NC(=O)c1ccccc1[N+](=O)[O-])Nc1ccc(Oc2ncc(Cl)cn2)c(C(F)(F)F)c1 get here?
Reply text: no
